Biological target: Beta-hexosaminidase subunit alpha (Homo sapiens)
Sequence (P06865 whole entry): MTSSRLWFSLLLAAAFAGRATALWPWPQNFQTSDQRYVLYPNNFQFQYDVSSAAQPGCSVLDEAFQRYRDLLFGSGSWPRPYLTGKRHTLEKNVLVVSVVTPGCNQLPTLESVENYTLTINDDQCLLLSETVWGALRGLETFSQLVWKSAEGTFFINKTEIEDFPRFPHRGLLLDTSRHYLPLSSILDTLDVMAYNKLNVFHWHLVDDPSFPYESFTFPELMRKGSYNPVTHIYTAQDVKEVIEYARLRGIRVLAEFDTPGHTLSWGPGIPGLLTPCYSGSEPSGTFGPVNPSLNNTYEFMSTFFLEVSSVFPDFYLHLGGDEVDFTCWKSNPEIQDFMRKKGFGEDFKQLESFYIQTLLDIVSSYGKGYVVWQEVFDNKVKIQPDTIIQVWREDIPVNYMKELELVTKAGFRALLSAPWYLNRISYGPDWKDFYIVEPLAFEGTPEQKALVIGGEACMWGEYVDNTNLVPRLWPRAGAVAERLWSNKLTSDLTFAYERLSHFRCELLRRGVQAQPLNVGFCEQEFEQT
Assay: Inhibition of human Hex A using 4-MU-GlcNAc as substrate after 10 mins by Lineweaver Burk plot analysis
pKi: −log10 of the molar value.
measuredProperty: pKi

- OC[C@@H]1[C@@H](O)[C@H](O)[C@@H](O)c2nc(CCc3ccc(-c4ccccc4)cc3)cn21: 3.79

====

Listing: inhibition of selected compounds
Target: Protein O-GlcNAcase (Homo sapiens)
Test: Inhibition of human OGA at 100 uM
measuredProperty: inhibition (%)

* OC[C@@H]1[C@@H](O)[C@H](O)[C@@H](O)c2nc(CCc3ccc(C4CCCCC4)cc3)cn21 | 56.6
* OC[C@@H]1[C@@H](O)[C@H](O)[C@@H](O)c2nc(CCc3ccc(-c4ccccc4)cc3)cn21 | 84.8
* OC[C@@H]1[C@@H](O)[C@H](O)[C@@H](O)c2nccn21 | 6.2
* OC[C@@H]1[C@@H](O)[C@H](O)[C@@H](O)c2nc(CCc3ccc(F)cc3)cn21 | 26.1
* O=C(CCc1cn2c(n1)[C@H](O)[C@@H](O)[C@H](O)[C@H]2CO)Nc1ccccc1 | 17.1
* CC(C)(CCc1cn2c(n1)[C@H](O)[C@@H](O)[C@H](O)[C@H]2CO)C(=O)Nc1ccccc1 | 2.2
* CCCCCCCCc1cn2c(n1)[C@H](O)[C@@H](O)[C@H](O)[C@H]2CO | 15.3
* OC[C@@H]1[C@@H](O)[C@H](O)[C@@H](O)c2nc(CCc3ccccc3)cn21 | 6.8
* COc1ccc(CCc2cn3c(n2)[C@H](O)[C@@H](O)[C@H](O)[C@H]3CO)cc1 | 54.1
* Cc1ccc(CCc2cn3c(n2)[C@H](O)[C@@H](O)[C@H](O)[C@H]3CO)cc1 | 28.3
* CC(C)(C)CCc1cn2c(n1)[C@H](O)[C@@H](O)[C@H](O)[C@H]2CO | 0.4

Source listed as ChEMBL document CHEMBL2157966.
